Tested on: Staphylococcus aureus
measurement.notes: Antibacterial activity against Staphylococcus aureus CIP 53156 after 18 hrs by agar dilution method
Type: functional
assay.conditions: CIP 53156, 18 h
reported.metric: MIC

Consider the worked cases shown below.
| compound | experimental.result |
| --- | --- |
| C=C1CC[C@H]2C(C)(C)CCC[C@]2(C)[C@H]1C[C@@H](O)C1=CC(=O)OC1 | > 188 µM |
| CC1(C)CCC[C@]2(C)[C@@H]1CC[C@]1(CO)O[C@@H](C3=CC(=O)OC3O)C[C@H]12 (stereo partly drawn) | > 46 µM |

We next turn to a different compound, shown below.
Q: What MIC appears in the records for this compound with Staphylococcus aureus? CC1(C)S[C@@H]2[C@H](NC(=O)[C@H](N)c3ccc(O)cc3)C(=O)N2[C@H]1C(=O)O
A: ≤ 0.2 µM

----------
Some molecules, each annotated with its measured MIC.
System: Staphylococcus haemolyticus
measurement.notes: Antibacterial activity against Staphylococcus haemolyticus CIP 8156 after 18 hrs by agar dilution method
Assay type: functional
assay.conditions: CIP 8156, 18 h

Worked set:
| molecule | MIC |
| --- | --- |
| C=C1CC[C@H]2C(C)(C)CCC[C@]2(C)[C@H]1C[C@H](O)C1=CCOC1=O | > 79 µM |
| CC1(C)CCC[C@]2(C)[C@@H]1CC[C@]1(CO)O[C@@H](C3=CC(=O)OC3O)C[C@H]12 (some centres undefined) | > 46 µM |
| C=C1CC[C@H]2C(C)(C)CCC[C@]2(C)[C@H]1C[C@@H](O)C1=CC(=O)OC1 | > 188 µM |

Next, consider the following molecule.
Q: # lookup: MIC of CC1(C)S[C@@H]2[C@H](NC(=O)[C@H](N)c3ccc(O)cc3)C(=O)N2[C@H]1C(=O)O [AMOXICILLIN]
A: ≤ 0.2 µM
